# measurement.target: Influenza virus A/Suita/1/2009pdm (H1N1 2009 pandemic) (Influenza A virus A/Suita/1/2009pdm (H1N1pdm))
# method: cell-based or functional assay
measure: Neutralizing activity (%) at 100 µg/ml
Entry rule: numbers only, all in %.

[[record]]
binder = "Group 39 representative clone F082-237, Fab-PP-type antibody (Fab, V domains shown) VH: QVQLVQSGAEVKKPGSSVKVSCKASGGIFNKYGISWVRQAPGQGLEWMGGILAIFGTTNYAQKFQGRVTISADESSTTVYMELSSLTSEDTAVYYCARGNTYYSSYFDQWGQGTLVTVSS VL: QSVLTQPPSVSVAPGQTATITCGGDKIGTGPVHWYQQMPGRAPVLLIYASTHRPSRIPERFSGSKSDNTATLSISGVGVGDEADYYCQMWDSSSVHPIVFGGGTKLTVLS"
recorded_number = 95.3

[[record]]
binder = "Group 63 representative clone F083-336, Fab-PP-type antibody (Fab, V domains shown) VH: QVQLQQSGAEVKQPGSSVKVSCKASGGIFRSNAISWVRQAPGQGLEWMGGIVALFGTANYAQKFQGRVTITADESTSTVYMELSSLRSEDTARYYCARNSGYHISGFYLDYWGQGTLVTVSS VL: EIVLTQSPSSLSASVGDRVTITCRASQGISNYLAWYQQRPGKVPKLLIYTASTLLSGVPSRFSGGGSGTDYTLTISSLQPEDVATYYCQEYKSVPLTFGPGTKVEIK"
recorded_number = 100


Prompt: Name the recorded Neutralizing activity (%) at 100 µg/ml for Group 44 representative clone F081-008, Fab-PP-type antibody (Fab, V domains shown) VH: QVQLVQSGAEVKKPGSSVKVSCKASGGTFSSFSTYTISWVRQAPGQGLEWMGRSIPLLGITNYAQKFQGRVTITADISTSTAYMELSSLRSEDTAVYYCARYQSSDYYNSEYFQHWGQGTLVTVSS VL: EIVLTQSPGTLSLSLGERVTLSCRASQNVGTNYLAWYQQKPGQAPRLLIYGASSRATGVPDRFSGSGSGTDFTLTISRLAPEDFAVYYCQQYSSSPLTFGGGTKLEIK .
Completion: 95.3
